# method.summary: Cytotoxicity against human HCT116/VM46 cells assessed as reduction in cell viability after 72 hrs by phosphatase assay
# Assay type: cell-based
# test.parameters: HCT-116/VM46, 72 h
Each record here notes measured IC50.

Below are worked cases with known answers.
{"molecule.smiles": "CC[C@]1(NC(=O)C2CCNCC2)C[C@H]2CN(CCc3c([nH]c4ccccc34)[C@@](C(=O)OC)(c3cc4c(cc3OC)N(C)[C@H]3[C@@](O)(C(=O)OC)[C@H](OC(C)=O)[C@]5(CC)C=CCN6CC[C@]43[C@@H]65)C2)C1", "IC50": "> 10000 nM"}
{"molecule.smiles": "CC[C@]1(NC(=O)c2ccc3c(c2)CCCCC3)C[C@H]2CN(CCc3c([nH]c4ccccc34)[C@@](C(=O)OC)(c3cc4c(cc3OC)N(C)[C@H]3[C@@](O)(C(=O)OC)[C@H](OC(C)=O)[C@]5(CC)C=CCN6CC[C@]43[C@@H]65)C2)C1", "IC50": "35 nM"}
{"molecule.smiles": "CC[C@]1(NC(=O)c2ccc3occc3c2)C[C@H]2CN(CCc3c([nH]c4ccccc34)[C@@](C(=O)OC)(c3cc4c(cc3OC)N(C)[C@H]3[C@@](O)(C(=O)OC)[C@H](OC(C)=O)[C@]5(CC)C=CCN6CC[C@]43[C@@H]65)C2)C1", "IC50": "25 nM"}

Moving on to the next compound.
q: Please give measured IC50 of the following entry: CCOc1ccc(C(=O)N[C@@]2(CC)C[C@H]3CN(CCc4c([nH]c5ccccc45)[C@@](C(=O)OC)(c4cc5c(cc4OC)N(C)[C@H]4[C@@](O)(C(=O)OC)[C@H](OC(C)=O)[C@]6(CC)C=CCN7CC[C@]54[C@@H]76)C3)C2)cc1Br
a: 50 nM

---

# method.summary: Cytotoxicity against human HCT116/VM46 cells assessed as reduction in cell viability after 72 hrs by phosphatase assay
# Assay type: cell-based
# test.parameters: HCT-116/VM46, 72 h
Each record here notes measured log10 of IC50.
Quick note: numbers are log10 of IC50, with nM as the unit.

Below are worked cases with known answers.
{"molecule.smiles": "CC[C@]1(NC(=O)c2ccc(OC)cc2)C[C@H]2CN(CCc3c([nH]c4ccccc34)[C@@](C(=O)OC)(c3cc4c(cc3OC)N(C)[C@H]3[C@@](O)(C(=O)OC)[C@H](OC(C)=O)[C@]5(CC)C=CCN6CC[C@]43[C@@H]65)C2)C1", "log10 of IC50": 0.88}
{"molecule.smiles": "CC[C@]1(NC(=O)c2ccc3c(c2)CCN3)C[C@H]2CN(CCc3c([nH]c4ccccc34)[C@@](C(=O)OC)(c3cc4c(cc3OC)N(C)[C@H]3[C@@](O)(C(=O)OC)[C@H](OC(C)=O)[C@]5(CC)C=CCN6CC[C@]43[C@@H]65)C2)C1", "log10 of IC50": 1.78}

q: Please give measured log10 of IC50 of the following entry: CC[C@]1(NC(=O)c2ccc(C)c(OC)c2)C[C@H]2CN(CCc3c([nH]c4ccccc34)[C@@](C(=O)OC)(c3cc4c(cc3OC)N(C)[C@H]3[C@@](O)(C(=O)OC)[C@H](OC(C)=O)[C@]5(CC)C=CCN6CC[C@]43[C@@H]65)C2)C1
a: 0.84

q: Please give measured log10 of IC50 of the following entry: CC[C@]1(NC(=O)c2ccc(OC(F)F)cc2)C[C@H]2CN(CCc3c([nH]c4ccccc34)[C@@](C(=O)OC)(c3cc4c(cc3OC)N(C)[C@H]3[C@@](O)(C(=O)OC)[C@H](OC(C)=O)[C@]5(CC)C=CCN6CC[C@]43[C@@H]65)C2)C1
a: 1.23

q: Please give measured log10 of IC50 of the following entry: CC[C@]1(NC(=O)c2ccccc2OC)C[C@H]2CN(CCc3c([nH]c4ccccc34)[C@@](C(=O)OC)(c3cc4c(cc3OC)N(C)[C@H]3[C@@](O)(C(=O)OC)[C@H](OC(C)=O)[C@]5(CC)C=CCN6CC[C@]43[C@@H]65)C2)C1
a: 2.00

q: Please give measured log10 of IC50 of the following entry: CC[C@]1(NC(=O)c2cccc(OC)c2)C[C@H]2CN(CCc3c([nH]c4ccccc34)[C@@](C(=O)OC)(c3cc4c(cc3OC)N(C)[C@H]3[C@@](O)(C(=O)OC)[C@H](OC(C)=O)[C@]5(CC)C=CCN6CC[C@]43[C@@H]65)C2)C1
a: 0.94

q: Please give measured log10 of IC50 of the following entry: CC[C@]1(NC(=O)c2cnc3ccccc3c2)C[C@H]2CN(CCc3c([nH]c4ccccc34)[C@@](C(=O)OC)(c3cc4c(cc3OC)N(C)[C@H]3[C@@](O)(C(=O)OC)[C@H](OC(C)=O)[C@]5(CC)C=CCN6CC[C@]43[C@@H]65)C2)C1
a: 0.76

q: Please give measured log10 of IC50 of the following entry: CC[C@]1(NC(=O)c2cccc(C)c2)C[C@H]2CN(CCc3c([nH]c4ccccc34)[C@@](C(=O)OC)(c3cc4c(cc3OC)N(C)[C@H]3[C@@](O)(C(=O)OC)[C@H](OC(C)=O)[C@]5(CC)C=CCN6CC[C@]43[C@@H]65)C2)C1
a: 0.48
